Reported Span is given for each of the following binders.
target: T1, human LILRB2 expressed on cells (293T-LILRB2, CHO-K1-LILRB2) (human, UniProt Q8N423 22-597); test: flow cytometry, blockade of His-tagged HLA-G tetramer binding to 293T-LILRB2 cells; fit table under the graph
T1 construct: whole, on cells; the cell line is named under assay; also called HEK293T-LILRB2
T1 sequence (Q8N423 22-597): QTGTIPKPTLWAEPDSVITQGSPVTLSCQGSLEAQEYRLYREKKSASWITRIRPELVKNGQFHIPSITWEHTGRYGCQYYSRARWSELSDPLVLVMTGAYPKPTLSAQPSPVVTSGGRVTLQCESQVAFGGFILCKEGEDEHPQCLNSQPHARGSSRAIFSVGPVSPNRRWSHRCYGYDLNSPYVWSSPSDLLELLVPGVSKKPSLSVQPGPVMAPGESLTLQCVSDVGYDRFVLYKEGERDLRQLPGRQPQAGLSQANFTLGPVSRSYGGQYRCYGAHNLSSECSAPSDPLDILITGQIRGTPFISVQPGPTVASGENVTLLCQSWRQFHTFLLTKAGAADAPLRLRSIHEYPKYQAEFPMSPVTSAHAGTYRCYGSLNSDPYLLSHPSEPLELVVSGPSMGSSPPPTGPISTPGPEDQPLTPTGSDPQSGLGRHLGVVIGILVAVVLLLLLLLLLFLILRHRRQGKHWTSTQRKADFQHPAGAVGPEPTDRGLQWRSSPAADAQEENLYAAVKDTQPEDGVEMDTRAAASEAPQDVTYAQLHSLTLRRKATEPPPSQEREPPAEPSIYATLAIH
attributeMeasured: Span (RFU)

binder	attributeMeasured	outputUnit	experimentalValue
Antibody h#2D4 (antibody, V domains shown, Humanized variant of 11B12) VH: EVQLVESGGGLVQPGGSLRLSCAVSGYSITSGYYWNWVRQAPGKGLEWVAYISYDGNNNYNPSLKNRFTISRDTSKNTFYLQMNSLRAEDTAVYYCVREESTMITTAWFAYWGQGTLVTVSS VL: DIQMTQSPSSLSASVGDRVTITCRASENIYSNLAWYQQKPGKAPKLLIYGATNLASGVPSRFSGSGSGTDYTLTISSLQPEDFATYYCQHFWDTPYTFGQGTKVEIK	Span	RFU	7190
Antibody h#2E1 (antibody, V domains shown, Humanized variant of 11B12; detected with anti-human IgG) VH: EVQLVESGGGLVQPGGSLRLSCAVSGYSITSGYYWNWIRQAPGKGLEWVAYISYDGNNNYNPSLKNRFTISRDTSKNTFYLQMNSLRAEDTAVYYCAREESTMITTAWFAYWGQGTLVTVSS VL: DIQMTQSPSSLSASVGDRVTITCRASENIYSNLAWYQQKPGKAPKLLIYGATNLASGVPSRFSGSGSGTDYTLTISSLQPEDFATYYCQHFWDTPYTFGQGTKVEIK	Span	RFU	11900
Antibody h#2E2 (antibody, V domains shown, Humanized variant of 11B12) VH: EVQLVESGGGLVQPGGSLRLSCAVSGYSITSGYYWNWIRQAPGKGLEWVAYISYDGNNNYNPSLKNRFTISRDTSKNTVYLQMNSLRAEDTAVYYCAREESTMITTAWFAYWGQGTLVTVSS VL: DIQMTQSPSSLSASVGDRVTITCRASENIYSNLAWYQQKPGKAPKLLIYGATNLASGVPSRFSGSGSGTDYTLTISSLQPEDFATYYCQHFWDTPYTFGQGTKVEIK	Span	RFU	8780
